test: activity coefficient (dimensionless); of the first substance listed, at infinite dilution; xn = mol fraction of the nth substance listed; details: 308.15 K; 101 kPa; Liquid; Chromatography; x1 = 0
Below, each of the molecules is paired with its reported activity coefficient value.

MOLECULE	activity coefficient
CCC(C)CC [3-methylpentane] + C[N+]1(CCCO)CCOCC1.O=S(=O)([N-]S(=O)(=O)C(F)(F)F)C(F)(F)F	201
CCCCCCC [heptane] + C[N+]1(CCCO)CCOCC1.O=S(=O)([N-]S(=O)(=O)C(F)(F)F)C(F)(F)F	280
CCCCCC [hexane] + C[N+]1(CCCO)CCOCC1.O=S(=O)([N-]S(=O)(=O)C(F)(F)F)C(F)(F)F	201
C=CCCC [1-pentene] + C[N+]1(CCCO)CCOCC1.O=S(=O)([N-]S(=O)(=O)C(F)(F)F)C(F)(F)F	49.4
